The compounds listed here are annotated with their MIC.
Test system: Candida albicans
TEST NAME: In vitro antifungal activity against Candida albicans ATCC 26278.
Assay type: functional
Non-standard residues stand in square brackets, D forms with d. Residues, ends and D or L forms follow the SMILES beside them. *: point of attachment. Fumaryl(OMe) = COC(=O)/C=C/C(=O)*; Dap = NC[C@H](N)C(=O)O
Give the quantity in mg/L, number only.

Use the examples below as a reference point.
INSERT INTO assay_data (compound, quantitative_result) VALUES
  ('CCC[C@H](NC(=O)[C@@H](N)CCSC)C(=O)N[C@@H](CNC(=O)/C=C/C(=O)OC)C(=O)O', 0.125),
  ('COC(=O)/C=C/C(=O)NC[C@H](NC(=O)[C@H](CCSC)NC(=O)[C@H](CCSC)NC(=O)[C@H](CCSC)NC(=O)[C@@H](N)CCSC)C(=O)O (H-MMMM[Dap](Fumaryl(OMe))-OH)', 0.5),
  ('COC(=O)/C=C/C(=O)NC[C@H](NC(=O)[C@H](CNC(=O)/C=C/C(=O)OC)NC(=O)[C@@H](N)CCSC)C(=O)O', 0.75),
  ('COC(=O)/C=C/C(=O)NC[C@H](NC(=O)[C@H](CCSC)NC(=O)[C@H](CCSC)NC(=O)[C@@H](N)CCSC)C(=O)O (H-MMM[Dap](Fumaryl(OMe))-OH)', 0.75);

For COC(=O)/C=C/C(=O)NC[C@H](NC(=O)[C@@H](N)CCSC)C(=O)N[C@@H](CCSC)C(=O)O the compound record lists MIC as 0.3
